tested on: Saccharomyces cerevisiae; test: protein stability index of tFT-peptide fusion (C-terminal peptide) (PSI (0-1 scale)); higher = more stable (slower turnover); conditions: genetic background: das1 deletion; temperature: 30 C
ASSAY_READOUT: protein stability index
A bare number is all that is needed in reply.

[[record]]
residues = "GEGGHFVIKKIS [DIT1 C-terminal 12 aa]"
assay_readout = "protein stability index"
reported_measurement = 0.685

[[record]]
residues = "ARLVSNEPILLD [CWC23 C-terminal 12 aa]"
assay_readout = "protein stability index"
reported_measurement = 0.725

[[record]]
residues = "AWDIKQTLDSLA [CHO2 C-terminal 12 aa]"
assay_readout = "protein stability index"
reported_measurement = 0.709

[[record]]
residues = "SKLNAVHTANEK [SEC8 C-terminal 12 aa]"
assay_readout = "protein stability index"
reported_measurement = 0.712

[[record]]
residues = "PPSPQEELLIEL [VPS27 C-terminal 12 aa]"
assay_readout = "protein stability index"
reported_measurement = 0.721


Consider the record given below.
Report protein stability index on Saccharomyces cerevisiae for this entry: NLAGRKNSRDNE [LOT5 C-terminal 12 aa] 0.681
